Experiment: E. coli acrAB mutant growth effects, primary screen, E. coli filamentation inducers, strain DRC39, OD650, 48 h (AID 1179);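 note: screen aims at cell division blockers that make cells filament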
Conditions: E. coli DRC39 delta-acrAB growth, called active from +8 up or from −8 down
Activity calls are given as the source filed them.
Classes used: label 1 (active), label 0 (inactive)

>>> discrete_label("C#CCCCON=C1C[C@@H](O)[C@@H](O)[C@@H]2[C@@H]3C(=O)N([C@@H](C)c4ccccc4)C(=O)[C@@H]3CC[C@H]12")
"label 0"
>>> discrete_label("CC(C)[C@H](NC(=O)OC(C)(C)C)[C@@H](O)CC(=O)OC(C)(C)C")
"label 0"
>>> discrete_label("COC(=O)[C@H](C)NC(=O)CCC1CC(OC(=O)NCc2cccc3ccccc23)CC2(CCCC(COC(=O)NCCc3ccc(Cl)cc3)O2)O1 (some centres undefined)")
"label 0"
>>> discrete_label("Cc1ccc(F)cc1S(=O)(=O)N[C@@H]1CCN(Cc2ccc(CC(C)C)cc2)C1")
"label 1"
>>> discrete_label("CN1C(=O)C2C=CC(C(O)C(c3ccccc3)c3ccccc3)N(NC(=O)OC(C)(C)C)C2C1=O (centres undefined)")
"label 0"
>>> discrete_label("[N-]=[N+]=Nc1ccccc1C[C@@]1(C(N)=O)N=C(c2ccc(OCCCO)cc2)O[C@@H]1c1ccccc1")
"label 0"
>>> discrete_label("CO[C@@H]1COC(=O)CCC[C@@H](C)[C@H](OC)COC(=O)[C@H](Cc2ccccc2)NC(=O)CC=C[C@H]1C")
"label 0"
>>> discrete_label("O=C1C[C@@H](O)[C@@H](O)[C@@H]2[C@@H]3C(=O)N(c4cccc(Oc5ccccc5)c4)C(=O)[C@@H]3CC[C@@H]12")
"label 0"
>>> discrete_label("C[C@@H]1CCC2C(=O)N(Cc3ccccc3)C[C@@H](O)CN2[C@H]1c1ccc(Br)cc1 (some centres undefined)")
"label 0"
>>> discrete_label("CN(C)CCCNC(=O)[C@@H]1c2ccccc2C(=O)N(Cc2ccccc2)[C@H]1c1ccc(CO)cc1")
"label 0"
>>> discrete_label("O=C1C[C@@H](O)[C@@H](O)[C@@H]2[C@@H]3C(=O)N(C4CCCCC4)C(=O)[C@@H]3CC[C@H]12")
"label 0"
>>> discrete_label("O=C1C[C@@H](O)[C@@H](O)[C@@H]2[C@@H]3C(=O)N(c4ccc(F)cc4F)C(=O)[C@@H]3CC[C@@H]12")
"label 0"
>>> discrete_label("CC(CCN1CCCCc2nc(C)c(C)cc21)=NOC(C)CN1CCCCc2nc(C)c(C)cc21 (centres undefined)")
"label 0"
>>> discrete_label("CC(C)c1ccc(NN2C(C(O)c3ccc4c(c3)OCO4)C=CC3C(=O)N(c4ccccc4)C(=O)C32)cc1 (centres undefined)")
"label 0"
